- Measurement Target: CYP1A1 (Homo sapiens, UniProt P04798)
- Sequence (P04798 1-512): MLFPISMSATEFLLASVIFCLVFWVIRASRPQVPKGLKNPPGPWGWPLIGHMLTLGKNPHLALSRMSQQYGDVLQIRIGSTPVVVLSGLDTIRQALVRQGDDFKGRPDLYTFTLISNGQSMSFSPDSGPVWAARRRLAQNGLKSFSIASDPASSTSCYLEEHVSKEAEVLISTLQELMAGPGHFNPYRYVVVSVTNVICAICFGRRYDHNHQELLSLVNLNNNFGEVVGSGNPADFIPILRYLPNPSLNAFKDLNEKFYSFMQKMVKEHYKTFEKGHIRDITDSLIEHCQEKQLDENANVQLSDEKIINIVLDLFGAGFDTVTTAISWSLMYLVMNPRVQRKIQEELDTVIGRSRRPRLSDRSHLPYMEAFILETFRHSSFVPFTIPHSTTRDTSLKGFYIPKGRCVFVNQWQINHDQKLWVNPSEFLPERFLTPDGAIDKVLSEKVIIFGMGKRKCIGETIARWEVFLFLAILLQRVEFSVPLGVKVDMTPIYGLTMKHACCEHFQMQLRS
Outcome Measure: pIC50
pIC50 here: minus log base 10 of the concentration, concentration in moles per litre.

INPUT: Lab note: need pIC50 with CYP1A1 (Homo sapiens, UniProt P04798) for entry O=c1c(O[C@@H]2O[C@H](CO)[C@H](O)[C@H](O)[C@H]2O)c(-c2ccc(O)c(O)c2)oc2cc(O)cc(O)c12 [hyperoside] , please look it up.
OUTPUT: 3.98

###

- Measurement Target: UniProt P08684
- Sequence (P08684 2-503): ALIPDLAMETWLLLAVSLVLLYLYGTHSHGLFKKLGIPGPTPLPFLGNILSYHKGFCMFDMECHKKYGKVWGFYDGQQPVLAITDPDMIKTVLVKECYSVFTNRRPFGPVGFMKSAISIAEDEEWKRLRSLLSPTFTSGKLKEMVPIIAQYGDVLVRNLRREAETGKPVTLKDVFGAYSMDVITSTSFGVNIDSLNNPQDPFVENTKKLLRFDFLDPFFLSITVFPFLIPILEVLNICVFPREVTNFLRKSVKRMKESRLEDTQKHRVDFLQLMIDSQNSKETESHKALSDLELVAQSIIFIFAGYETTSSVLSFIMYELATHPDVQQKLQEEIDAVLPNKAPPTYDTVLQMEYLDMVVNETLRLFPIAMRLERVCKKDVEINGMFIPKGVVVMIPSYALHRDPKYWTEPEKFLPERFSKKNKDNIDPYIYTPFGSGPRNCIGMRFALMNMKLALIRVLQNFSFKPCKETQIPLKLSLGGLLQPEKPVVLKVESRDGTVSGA
- Test Name: fluorescent probe substrate
- Format: biochemical
- Measurement Context: liver microsomes
Outcome Measure: IC50 (µM)
Only the number, expressed in µM, is required.

INPUT: Give recorded IC50 with UniProt P08684 for the following compound: CC(=O)O[C@@H](C[C@@H](C)C1=C2C[C@H](O)[C@H]3[C@@]4(C)CCC(=O)C(C)(C)[C@@H]4CC[C@]3(C)[C@@]2(C)CC1)[C@H]1OC1(C)C [alisol B 23-acetate]
OUTPUT: 0.45
